Data origin: paper PMC5727059

Biological target: human GABAρ1 (Homo sapiens)
Construct: expressed in transfected cells; host or cells: Xenopus laevis oocytes injected with in vitro transcribed mRNA
Experiment: Inhibition of GABA currents by co-application of 3 µM GABA and analogue, two-microelectrode voltage clamp in X. laevis oocytes
Assay type: cell-based
Conditions: read-out: GABA ρ1 (Human) IC50; Table 1; oocytes
PROPERTY_NAME: pIC50
Conceptually, pIC50 converts a concentration in mol/L into minus its log10.

**Query** Requested read-out: pIC50. Entry: COc1cc(CCN)ccc1O
**Result** 3.55

====

Target: human GABAρ1 (Homo sapiens, UniProt P24046)
Construct: expressed in transfected cells; host or cells: Xenopus laevis oocytes injected with in vitro transcribed mRNA
Sequence (P24046 22-479): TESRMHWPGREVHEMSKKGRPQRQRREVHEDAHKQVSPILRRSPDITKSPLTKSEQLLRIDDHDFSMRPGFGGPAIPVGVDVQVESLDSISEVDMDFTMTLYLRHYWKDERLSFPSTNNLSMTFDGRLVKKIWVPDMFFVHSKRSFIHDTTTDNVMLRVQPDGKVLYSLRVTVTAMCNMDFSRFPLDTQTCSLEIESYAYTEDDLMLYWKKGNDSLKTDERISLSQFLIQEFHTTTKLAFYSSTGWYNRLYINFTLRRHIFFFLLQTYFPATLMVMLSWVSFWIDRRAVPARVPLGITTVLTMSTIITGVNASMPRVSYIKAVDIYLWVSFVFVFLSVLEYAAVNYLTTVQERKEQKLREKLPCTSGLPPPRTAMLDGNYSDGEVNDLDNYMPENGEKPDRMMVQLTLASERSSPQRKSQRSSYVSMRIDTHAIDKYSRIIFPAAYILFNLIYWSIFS
Experiment: Inhibition of GABA currents by co-application of 3 µM GABA and analogue, two-microelectrode voltage clamp in X. laevis oocytes;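 further: oocytes expressing human GABAρ1 from injected mRNA, recorded 1–5 days later, clamped at −60 mV, room temperature, compounds bath-applied at pH 7.4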
Type: cell-based
Conditions: read-out: Maximal effect on GABA currents, % Inh
hey, just use 1 (yes) if measured Emax is less than 90%, otherwise 0 (no)

Example entries begin here.
{"COMPOUND": "COc1cc(CC(=O)O)ccc1O [HVA, Homovanillic acid]", "CLASS_LABEL": "1 (yes)"}
{"COMPOUND": "NCCc1ccc(O)c(O)c1 [DA, Dopamine]", "CLASS_LABEL": "0 (no)"}
{"COMPOUND": "COc1cc(CCN)ccc1O [3-MT, 3-Methoxytyramine]", "CLASS_LABEL": "0 (no)"}
{"COMPOUND": "NCCCCO [4-AM-1-OH, 4-Amino-1-butanol]", "CLASS_LABEL": "0 (no)"}
{"COMPOUND": "NCCc1ccccc1 [β-PEA, 2-Phenylethylamine]", "CLASS_LABEL": "0 (no)"}

Then there is this compound:
**Query** Could you please tell me whether Emax recorded for O=C(O)Cc1ccc(O)c(O)c1 [DOPAC, 3,4-Dihydroxyphenylacetic acid] is less than 90%?
**Result** 0 (no)
